Hey, just so you know, these numbers are from patent US20240254182A1.

Target: T1, WT G-CSF, purified from insect cells, tag cleaved (human, UniProt P09919 31-206)
T1 construct: protein of the SPR; also called G-CSFWT; wild type G-CSF
T1 sequence: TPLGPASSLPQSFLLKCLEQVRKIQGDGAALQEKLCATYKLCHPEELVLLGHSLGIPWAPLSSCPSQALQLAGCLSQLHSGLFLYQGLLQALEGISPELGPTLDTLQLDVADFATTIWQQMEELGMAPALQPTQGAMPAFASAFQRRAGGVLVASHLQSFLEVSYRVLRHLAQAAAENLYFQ
Test: SPR (Biacore T200), single-cycle kinetics

| BINDER | binding result |
| --- | --- |
| design 303 G-CSFR(Ig-CRH)E, tag cleaved (receptor) SMGCGHISVSAPIVHLGDPITASCIIKQNCSHLDPEPQILWRLGAELQPGGRQQRLSDGTQESIITLPHLNHTQAFLSCSLNWGNSLQILDQVKLRAGYPPAIPHNLSCLMNLTTSSLICQWEPGPETHLPTSFTLKSFKSRGNCQTQGDSILDCVPKDGQSHCSIPDKHLLLYQNMGIWVQAENALGTSMSPQLCLDPMDVVKLEPPMLRTMDPSPEAAPPQAGCLQLSWEPWQPGLHINQKCELRHKPQRGEASWALVGPLPLEALQYELCGLLPATAYTLQIRCIRWPLPGHWSDWSPSLELRTTE | no binding |
| design 300 G-CSFR(Ig-CRH)E, tag cleaved (receptor) SMGCGHISVSAPIVHLGDPITASCIIKQNCSHLDPEPQILWRLGAELQPGGRQQRLSDGTQESIITLPHLNHTQAKLSCSLNWGNSLQILDKVELRAGYPPAIPHNLSCLMNLTTSSLICQWEPGPETHLPTSFTLKSFKSRGNCQTQGDSILDCVPKDGQSHCSIPDKHLLLYQNMGIWVQAENALGTSMSPQLCLDPMDVVKLEPPMLRTMDPSPEAAPPQAGCLQLSWEPWQPGLHINQKCELRHKPQRGEASWALVGPLPLEALQYELCGLLPATAYTLQIRCIRWPLPGHWSDWSPSLELRTTE | no binding |
